# retention time on BEH HILIC column annotations
Assay: retention time on BEH HILIC column (20 min gradient, 0.4 mL/min); higher = later elution
Conditions: ionization: ESI positive; LC: HILIC, pH 3.0 ammonium formate
endpoint.name: retention time on BEH HILIC column (min)

| compound | unit.spec | endpoint.value |
| --- | --- | --- |
| Nc1ncnc2nc[nH]c12 [Adenine] | min | 2.59 |
| N[C@@H](CCC(=O)N[C@@H](CS)C(=O)NCC(=O)O)C(=O)O [Glutathione] | min | 9.46 |
| CC(C)(COP(=O)(O)OP(=O)(O)OC[C@H]1O[C@@H](n2cnc3c(N)ncnc32)[C@H](O)[C@@H]1OP(=O)(O)O)[C@@H](O)C(=O)NCCC(=O)NCCSC(=O)CCC(=O)O [Succinyl-CoA] | min | 13.5 |
| O[C@H]1[C@H](O)[C@H](O)OC[C@H]1O [D-arabinose] | min | 2.28 |
| CCCCCCCCCCCCCCCCCCCCCC(=O)O [Behenic acid] | min | 0.82 |
| NCCCCNCCCN [Spermidine] | min | 12.7 |
| OC[C@@H](O)[C@H](O)[C@@H](O)CO [D-xylitol] | min | 3.16 |
| CC(C)C[C@H](N)C(=O)O [L-leucine] | min | 6.26 |
| OC[C@H]1O[C@@H](O)[C@H](O)[C@@H](O)[C@@H]1O [D-glucose] | min | 3.88 |
| Nc1ncnc2c1ncn2[C@@H]1O[C@H](COP(=O)(O)O)[C@@H](O)[C@H]1O [AMP] | min | 9.15 |
| O=C(O)CCCC[C@@H]1SC[C@@H]2NC(=O)N[C@@H]21 [Biotin] | min | 1.88 |
| N[C@@H](CCC(=O)N[C@@H](CSSC[C@H](NC(=O)CC[C@H](N)C(=O)O)C(=O)NCC(=O)O)C(=O)NCC(=O)O)C(=O)O [Oxidized glutathione] | min | 12.6 |
| O=C(O)c1ccc(CO)o1 [Sumiki's acid] | min | 3.12 |
| Nc1c(C(=O)O)c2nc3c(C(=O)O)cccc3oc-2cc1=O [Cinnavalininate] | min | 2.66 |
| O=C(O)[C@@H]1CCCN1 [L-proline] | min | 7.22 |
| CN1CC(=O)NC1=N [Creatinine] | min | 2.79 |
| O=c1cc[nH]c(=O)[nH]1 [Uracil] | min | 1.08 |
| CCCCCCCC/C=C\CCCCCCCC(=O)O [Oleic acid] | min | 0.73 |
| N=C(N)NCCC[C@H](N)C(=O)O [L-arginine] | min | 10.8 |
| OC[C@@H](O)[C@@H](O)[C@H](O)[C@H](O)CO [Mannitol] | min | 4.8 |
| CCCCCCCCCCCCCCCCCCC(=O)O [Nonadecanoic acid] | min | 0.77 |
| Cc1c(C)c2c(c(C)c1O)CC[C@@](C)(CCC[C@H](C)CCC[C@H](C)CCCC(C)C)O2 [a-tocopherol] | min | 0.73 |
| OC[C@H]1O[C@](O)(CO)[C@@H](O)[C@@H]1O [D-fructose] | min | 3.49 |
| OC[C@H]1O[C@@](CO)(O[C@H]2O[C@H](CO)[C@@H](O)[C@H](O)[C@H]2O)[C@@H](O)[C@@H]1O [Sucrose] | min | 6.77 |
| O=C(O)/C=C(\CC(=O)O)C(=O)O [trans-aconitic acid] | min | 2.23 |
| O=C(O)c1cc(O)ccc1O [Gentisic acid] | min | 1.38 |
| OC[C@H]1O[C@H](O[C@H]2[C@H](O)[C@H](O)[C@@H](O)O[C@@H]2CO)[C@H](O)[C@@H](O)[C@@H]1O [D-maltose] | min | 6.68 |
| O=C1CC[C@@H](C(=O)O)N1 [Pyroglutamic acid] | min | 6.77 |
| N[C@@H](Cc1c[nH]c2ccccc12)C(=O)O [L-tryptophan] | min | 5.77 |
| C=C1CC[C@H](O)C/C1=C/C=C1\CCC[C@]2(C)[C@@H]([C@H](C)CCCC(C)C)CC[C@@H]12 [Vitamin D3] | min | 0.73 |
| CCCCC/C=C\C/C=C\CCCCCCCC(=O)O [Linoleic acid] | min | 0.75 |
| CC[C@H](C)[C@H](N)C(=O)O [L-isoleucine] | min | 6.47 |
| NCCC[C@H](N)C(=O)O [Ornithine] | min | 11.1 |
| O=c1[nH]c(=O)c2[nH]c(=O)[nH]c2[nH]1 [Uric acid] | min | 3.02 |
| CCCCCCCCC(=O)OC [Methyl nonanoate] | min | 1.03 |
| NCCS(=O)(=O)O [Taurine] | min | 6 |
| O=C(O)CNC(=O)Cc1ccccc1 [Phenylacetylglycine] | min | 2.11 |
| Cc1ncc(C[n+]2csc(CCO)c2C)c(N)n1 [Thiamine] | min | 8.96 |
| N=C(NCCC[C@H](N)C(=O)O)N[C@@H](CC(=O)O)C(=O)O [Arginosuccinic acid] | min | 11.2 |
| CCCCCCCCCCCCCCCC(=O)O [Palmitic acid] | min | 0.72 |

All values here come from the supplement of paper PMC11127212.
